Hi there, I'd appreciate the recorded GI50 for every entry that follows.
- System: MDA-MB-468 breast
- protocol: NCI tumour cell line growth inhibition, 48 h

Request: Quick one: GI50 of CNCc1ccc(-c2[nH]c3cc(F)cc4c3c2CCNC4=O)cc1 ?
Response: 10.8 µM

Request: Quick one: GI50 of Cn1ccnc1C(=O)/C=C/c1ccc(C(=O)Nc2c(F)c(F)c(F)c(F)c2F)cc1 ?
Response: 1.72 µM

Request: Quick one: GI50 of C#CC#CC#CC#CC#CC#CC#CC#CC[C@@H]1OC[C@@H](COC(=O)O[C@@H](C(=O)O[C@H]2C[C@@]3(O)[C@@H](OC(=O)c4ccccc4)[C@@H]4[C@]5(OC(C)=O)CO[C@@H]5C[C@H](O)[C@@]4(C)C(=O)[C@H](OC(C)=O)C(=C2C)C3(C)C)[C@@H](NC(=O)c2ccccc2)c2ccccc2)O1 ?
Response: 0.108 µM

Request: Quick one: GI50 of CC1(C)CC[C@]2(C(=O)O)CC[C@]3(C)C(=CC[C@@H]4[C@@]5(C)C/C(=C/c6ccco6)C(=O)C(C)(C)[C@@H]5CC[C@]43C)[C@@H]2C1 ?
Response: 3.29 µM

Request: Quick one: GI50 of COc1ccc(-c2cc(-c3ccccc3)nc(NCCNc3ccnc4cc(Cl)ccc34)n2)cc1 ?
Response: 0.3 µM

Request: Quick one: GI50 of COc1ccc2[nH]c(O)c(N=Nc3nc(-c4ccccc4)cs3)c2c1 ?
Response: 1.71 µM

Request: Quick one: GI50 of O=C(Nc1ccc(F)cc1)Nc1nc2ccc([N+](=O)[O-])cc2s1 ?
Response: 2.36 µM

Request: Quick one: GI50 of CC1=C2[C@@H](CC1)[C@]1(C)O[C@@](C3CC3)(C[C@H]1OC(=O)CO)[C@H]2OC(=O)/C=C/c1ccccc1 ?
Response: 14.6 µM

Request: Quick one: GI50 of Cc1cc(Nc2ccc(Cl)cc2)nc(NCCCNc2ccnc3cc(Cl)ccc23)n1 ?
Response: 1.61 µM

Request: Quick one: GI50 of COc1ccc(Cc2nc3cc(OC)c(OC)cc3c(=O)[nH]2)cc1 ?
Response: 3.32 µM

Request: Quick one: GI50 of CNCc1cccc2c1OCCOCCOCCC(C)S(=O)(=O)c1ccc(cc1)-c1cnc(N)c(n1)C(=O)N2 (stereo unspecified) ?
Response: 1.29 µM
